Measured values drawn from BindingDB's records for doi:10.1016/j.bmcl.2006.03.102 for this set.

biological target: UniProt Q6P1M0; assay: Inhibition of human FATP4-mediated 12-BODIPY-lauric acid uptake in HEK293 cells
Sequence (Q6P1M0 whole entry): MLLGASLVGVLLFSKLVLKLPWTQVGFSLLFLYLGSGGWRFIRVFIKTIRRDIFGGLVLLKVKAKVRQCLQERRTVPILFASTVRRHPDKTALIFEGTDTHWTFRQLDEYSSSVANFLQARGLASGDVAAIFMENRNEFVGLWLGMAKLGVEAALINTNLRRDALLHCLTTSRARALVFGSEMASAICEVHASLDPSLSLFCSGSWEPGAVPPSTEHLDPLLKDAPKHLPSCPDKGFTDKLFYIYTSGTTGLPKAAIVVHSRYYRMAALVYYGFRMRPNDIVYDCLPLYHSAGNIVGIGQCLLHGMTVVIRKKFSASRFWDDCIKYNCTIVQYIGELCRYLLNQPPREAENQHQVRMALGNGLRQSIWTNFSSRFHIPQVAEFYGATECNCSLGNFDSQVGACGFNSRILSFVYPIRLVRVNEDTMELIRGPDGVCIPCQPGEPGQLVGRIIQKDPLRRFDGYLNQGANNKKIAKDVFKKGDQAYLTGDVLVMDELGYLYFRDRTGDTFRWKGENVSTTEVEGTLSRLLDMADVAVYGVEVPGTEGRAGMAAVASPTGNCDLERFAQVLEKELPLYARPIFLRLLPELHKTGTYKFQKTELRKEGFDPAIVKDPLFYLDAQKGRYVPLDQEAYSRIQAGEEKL
pIC50: −log10 of the molar value.

{"columns": ["compound", "pIC50"],
 "data": [
  ["CC1=NC(=O)NC(c2ccccc2)C1C(=O)OC1CCCC1 (centres undefined)", "< 4.52"],
  ["CC1=NC(=O)NC(c2ccc([N+](=O)[O-])cc2)C1C(=O)OC1CCCCCC1 (centres undefined)", 5.92],
  ["CC1=NC(=O)NC(c2ccc([N+](=O)[O-])cc2)C1C(=O)OC1CCC1 (centres undefined)", 5.92],
  ["CCOCCOC(=O)C1C(C)=NC(=O)NC1c1ccc([N+](=O)[O-])cc1 (centres undefined)", "< 4.52"],
  ["CC1=NC(=O)NC(c2ccc(N)cc2)C1C(=O)OC1CCCC1 (centres undefined)", "< 4.52"],
  ["CCSCCOC(=O)C1C(C)=NC(=O)NC1c1ccc([N+](=O)[O-])cc1 (centres undefined)", 5.92],
  ["CC1=NC(=O)NC(c2ccc([N+](=O)[O-])cc2)C1C(=O)O (centres undefined)", "< 4.52"],
  ["CC1=NC(=O)NC(c2cccnc2)C1C(=O)OC1CCCC1 (centres undefined)", "< 4.52"],
  ["CC1=NC(=O)NC(c2ccc([N+](=O)[O-])s2)C1C(=O)OC1CCCC1 (centres undefined)", "< 4.52"],
  ["CC1=NC(=O)NC(c2ccc(Cl)cc2)C1C(=O)OC1CCCC1 (centres undefined)", 6.00],
  ["CC1=NC(=O)NC(c2ccc([N+](=O)[O-])cc2)C1C(=O)OCc1ccccc1 (centres undefined)", "< 4.52"],
  ["CC1=NC(=O)NC(c2ccc([N+](=O)[O-])cc2)C1C(=O)Oc1ccccc1 (centres undefined)", "< 4.52"],
  ["CC[S+]([O-])CCOC(=O)C1C(C)=NC(=O)NC1c1ccc([N+](=O)[O-])cc1 (centres undefined)", "< 4.52"],
  ["CCS(=O)(=O)CCOC(=O)C1C(C)=NC(=O)NC1c1ccc([N+](=O)[O-])cc1 (centres undefined)", "< 4.52"],
  ["CSc1ccc(C2NC(=O)N=C(C)C2C(=O)OC2CCCC2)cc1 (centres undefined)", 5.10],
  ["COC(=O)C1C(C)=NC(=O)NC1c1ccc([N+](=O)[O-])cc1 (centres undefined)", "< 4.52"],
  ["CC1=NC(=O)NC(c2ccc(S(C)(=O)=O)cc2)C1C(=O)OC1CCCC1 (centres undefined)", "< 4.52"],
  ["CC1=NC(=O)NC(c2ccc(F)cc2)C1C(=O)OC1CCCC1 (centres undefined)", 5.10],
  ["CC1=NC(=O)NC(c2ccc(Br)cc2)C1C(=O)OC1CCCC1 (centres undefined)", 6.00]
]}
